Each recorded value in this set is attributed to patent US20210188980A1.

- tested.system: T1, human PD-1 expressed on cells (human, UniProt Q15116 25-288)
- T1 construct: whole, on cells; also called CHO-K1/huPD-1; CHO-K1-hPD-1 cells
- T1 sequence (Q15116 25-288): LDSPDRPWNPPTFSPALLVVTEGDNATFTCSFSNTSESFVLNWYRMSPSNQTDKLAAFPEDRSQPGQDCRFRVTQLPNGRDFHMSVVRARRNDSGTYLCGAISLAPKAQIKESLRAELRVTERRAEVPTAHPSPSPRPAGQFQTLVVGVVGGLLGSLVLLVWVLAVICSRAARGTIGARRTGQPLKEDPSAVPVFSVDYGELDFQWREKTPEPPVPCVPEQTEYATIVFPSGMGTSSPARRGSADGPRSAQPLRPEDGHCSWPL
- protocol.notes: cell RBA FACS, CHO-K1-huPD1; competitor biotin-PD-L2/Fc
parameter.measured: IC50 (nM)
Give a bare numeral; the unit nM is implied.

HumAb709-4 (antibody, human IgG1, kappa, L234A L235A, V domains shown, humanized mAb709) VH: EVQLVESGGGLVQPGGSLRLSCAASGFTFSFYTMSWVRQAPGKGLEWVATISGGGRDTYYPDSVKGRFTISRDNAKNSLYLQMNSLRAEDTAVYYCARQGGNYLFAYWGQGTLVTVSS VL: DIQMTQSPSSLSASVGDRVTITCKASQDVNTVVAWYQQKPGKAPKLLISWASTRHTGVPSRFSGSGSGTDYTLTISSLQPEDFATYYCQQHYTTPYTFGGGTKVEIKR : 1.68

Report measured IC50; entry is HumAb709-1 (antibody, human IgG1, kappa, L234A L235A, V domains shown, humanized mAb709) VH: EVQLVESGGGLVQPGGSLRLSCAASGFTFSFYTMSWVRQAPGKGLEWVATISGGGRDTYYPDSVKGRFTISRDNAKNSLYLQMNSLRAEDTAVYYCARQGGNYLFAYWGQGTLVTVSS VL: DIQMTQSPSSLSASVGDRVTITCKASQDVNTVVAWYQQKPGKAPKLLIYWASTRHTGVPSRFSGSGSGTDYTLTISSLQPEDFATYYCQQHYTTPYTFGGGTKVEIKR 1.64
